Tested on: HCV genotype 1b replicon
Assay: HCV replicon assay (HCV 1b_Huh-Luc/Neo-ET cell line, luciferase readout)
Format: cell-based
Settings: Hepatitis C virus; bicistronic genotype 1b replicon in Huh 7 cells, 72 h incubation, luciferase enzyme activity; read-out: Inhibition of HCV genotype 1b
observed.property: EC50

INSERT INTO measurements (compound, observed_property, result) VALUES
  ('COC(=O)N[C@H](C(=O)N1CCC[C@H]1C(=O)N[C@@H](C)c1ccc(-c2ccc(-c3cnc([C@@H]4CCCN4C(=O)[C@@H](NC(=O)OC)C4CCOCC4)[nH]3)cc2)cc1)C1CCOCC1', 'EC50', '1 to 9.9 nM'),
  ('CC(C)(C)OC(=O)N1CCOCC1C(=O)Nc1ccc(-c2ccc(-c3cnc([C@@H]4CCCN4C(=O)OC(C)(C)C)[nH]3)cc2)cc1 (stereo partly shown)', 'EC50', '10 to 999 nM'),
  ('C[C@H](NC(=O)[C@@H]1CCCN1C(=O)[C@H](NC(=O)N1CCOCC1)c1ccccc1)c1ccc(-c2ccc(-c3cnc([C@@H]4CCCN4C(=O)[C@H](NC(=O)N4CCOCC4)c4ccccc4)[nH]3)cc2)cc1', 'EC50', '1 to 9.9 nM'),
  ('CC(C)[C@@H](NC(=O)C1CC1)C(=O)N1CCC[C@H]1C(=O)Nc1ccc(-c2ccc(-c3cnc([C@@H]4COCCN4C(=O)[C@H](NC(=O)C4CC4)C(C)C)[nH]3)cc2)cc1', 'EC50', '1 to 9.9 nM'),
  ('COC(=O)N[C@H](C(=O)N1CCC[C@H]1C(=O)Nc1ccc(-c2ccc3nc([C@@H]4CCCN4C(=O)[C@@H](NC(=O)OC)C(C)C)[nH]c3c2)cc1)C(C)C', 'EC50', '1 to 9.9 nM');

Would you be so kind as to report EC50 for each listed record?
1. CC(C)[C@@H](NC(=O)OC(C)(C)C)C(=O)N1CCOC[C@H]1C(=O)Nc1ccc(-c2ccc(-c3cnc([C@@H]4COCCN4C(=O)[C@H](NC(=O)OC(C)(C)C)C(C)C)[nH]3)cc2)cc1
2. COC(=O)N[C@H](C(=O)N1CCC[C@H]1C(=O)NCc1ccc(-c2ccc(-c3cnc([C@@H]4CCCN4C(=O)[C@@H](NC(=O)OC)[C@@H](C)OC)[nH]3)cc2)cc1)[C@@H](C)OC
3. C[C@@H](NC(=O)C1CC1)C(=O)N1CCC[C@H]1C(=O)Nc1ccc(-c2ccc(-c3cnc([C@@H]4COCCN4C(=O)[C@@H](C)NC(=O)C4CC4)[nH]3)cc2)cc1

10 to 999 nM
10 to 999 nM
1 to 9.9 nM

Quick request: EC50 for each listed item, please.
1. COC(=O)N[C@@H](C)C(=O)N1CCC[C@H]1C(=O)NCc1ccc(-c2ccc(-c3cnc([C@@H]4CCCN4C(=O)[C@H](C)NC(=O)OC)[nH]3)cc2)cc1
2. C[C@@H](NC(=O)OC(C)(C)C)C(=O)N1CCC[C@H]1C(=O)Nc1ccc(-c2ccc(-c3cnc([C@@H]4COCCN4C(=O)[C@@H](C)NC(=O)OC(C)(C)C)[nH]3)cc2)cc1
3. COC(=O)N[C@H](C(=O)N1CCC[C@H]1C(=O)NCc1ccc(-c2ccc3nc([C@@H]4CCCN4C(=O)[C@@H](NC(=O)OC)C(C)C)[nH]c3c2)cn1)C(C)C
4. CC(C)(C)OC(=O)N[C@@H](C(=O)N1CCC[C@H]1c1ncc(-c2ccc(Sc3ccc(-c4cnc([C@@H]5CCCN5C(=O)[C@H](NC(=O)OC(C)(C)C)c5ccccc5)[nH]4)cc3)cc2)[nH]1)c1ccccc1
5. C[C@@H](NC(=O)[C@@H]1CCCN1C(=O)[C@H](NC(=O)N1CCN(C)CC1)c1ccccc1)c1ccc(-c2ccc(-c3cnc([C@@H]4CCCN4C(=O)[C@H](NC(=O)N4CCN(C)CC4)c4ccccc4)[nH]3)cc2)cc1
6. COC(=O)N[C@@H](C(=O)N1CCC[C@H]1CNC(=O)c1ccc(-c2ccc(-c3cnc([C@@H]4CCCN4C(=O)[C@H](NC(=O)N4CCN(C)CC4)c4ccccc4)[nH]3)cc2)cc1)c1ccccc1
7. COC(=O)N[C@H](C(=O)N1CCC[C@H]1CNC(=O)c1ccc(-c2ccc(-c3cnc([C@@H]4CCCN4C(=O)[C@@H](NC(=O)OC)C(C)C)[nH]3)cc2)cc1)C(C)C

1. 10 to 999 nM
2. 10 to 999 nM
3. 10 to 999 nM
4. < 1 nM
5. 1 to 9.9 nM
6. < 1 nM
7. < 1 nM

Need EC50 of `COC(=O)N[C@@H](C)C(=O)N1CCC[C@H]1CNC(=O)c1ccc(-c2ccc(-c3cnc([C@@H]4CCCN4C(=O)[C@H](C)NC(=O)OC)[nH]3)cc2)cc1` , thanks.
1 to 9.9 nM
